# IC50 per record follows
# target.under.test: NK1 (Homo sapiens, UniProt P25103)
# Sequence (P25103 whole entry): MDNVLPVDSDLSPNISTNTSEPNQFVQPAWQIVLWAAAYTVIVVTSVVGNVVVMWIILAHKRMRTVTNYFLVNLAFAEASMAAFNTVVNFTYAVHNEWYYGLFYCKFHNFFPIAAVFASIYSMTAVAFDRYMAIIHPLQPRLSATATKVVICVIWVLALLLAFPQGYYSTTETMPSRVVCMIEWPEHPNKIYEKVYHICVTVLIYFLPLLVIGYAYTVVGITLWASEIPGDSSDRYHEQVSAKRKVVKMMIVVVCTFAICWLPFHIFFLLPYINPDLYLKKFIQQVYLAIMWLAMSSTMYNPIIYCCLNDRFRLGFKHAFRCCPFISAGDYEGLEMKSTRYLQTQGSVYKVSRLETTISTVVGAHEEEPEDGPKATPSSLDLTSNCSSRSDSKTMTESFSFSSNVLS
# method: Signal transduction (ST), intracellular Ca++ (FLIPR), NK1 antagonistic activity
# Format: cell-based
# condition.summary: read-out: pIC50 NK1 (converted)
Reply numerically in nM, unit not repeated.

Example compounds with recorded IC50:
O=C(C(O)c1ccccc1)N1CCC(N2CCN([C@H]3CCN(C(=O)c4cc(C(F)(F)F)cc(C(F)(F)F)c4)[C@H](Cc4ccccc4)C3)CC2)C1 (stereo partly shown) [Compound 275]; 10
O=C(c1cnccn1)N1CCC(N2CCN(C3CCN(C(=O)c4cc(C(F)(F)F)cc(C(F)(F)F)c4)C(Cc4ccc(F)c(F)c4)C3)CC2)C1 (single isomer, unassigned) [Compound 237]; 10
O=C(C(NCCO)c1ccccc1)N1CCC(N2CCN([C@H]3CCN(C(=O)c4cc(C(F)(F)F)cc(C(F)(F)F)c4)[C@H](Cc4ccccc4)C3)CC2)C1 (stereo partly shown) [Compound 106]; 31.6
O=C(c1cc(C(F)(F)F)cc(C(F)(F)F)c1)N1CC[C@@H](N2CCN(C3CCN(S(=O)(=O)c4cccs4)C3)CC2)C[C@H]1Cc1ccc(Cl)c(Cl)c1 (relative stereo) [Compound 142]; 126
O=C(c1ccsc1)N1CCC(N2CCN(C3CCN(C(=O)c4cc(C(F)(F)F)cc(C(F)(F)F)c4)C(Cc4ccc(F)c(F)c4)C3)CC2)C1 (single isomer, unassigned) [Compound 238]; 6.31

Recorded result, Cc1oc(-c2ccccc2)cc1C(=O)N1CCC(N2CCN([C@H]3CCN(C(=O)c4cc(C(F)(F)F)cc(C(F)(F)F)c4)[C@H](Cc4ccccc4)C3)CC2)C1 (stereo partly shown) [Compound 38] , IC50: 200

Given item O=C(c1cc(C(F)(F)F)cc(C(F)(F)F)c1)N1CC[C@H](N2CCN(C3CCN(S(=O)(=O)c4cccs4)C3)CC2)C[C@H]1Cc1ccccc1 (stereo partly shown) [Compound 76] , the value recorded as its IC50 is 20

Value of IC50 reported for the compound O=C(C1CC1)N1CCC(N2CCN(C3CCN(C(=O)c4cc(C(F)(F)F)cc(C(F)(F)F)c4)C(Cc4ccccc4)C3)CC2)C1 (single isomer, unassigned) [Compound 71] is 20

Sample O=C(c1cc(C(F)(F)F)cc(C(F)(F)F)c1)N1CC[C@H](N2CCN(C3CCN(S(=O)(=O)c4ccc(O)cc4)C3)CC2)C[C@H]1Cc1ccccc1 (stereo partly shown) [Compound 303] ; IC50 observed: 6.31

Per the record, Cc1ccccc1-n1cncc1CN1CCC(N2CCN([C@H]3CCN(C(=O)c4cc(C(F)(F)F)cc(C(F)(F)F)c4)[C@H](Cc4ccccc4)C3)CC2)C1 (stereo partly shown) [Compound 9] has IC50 of 39.8

###

# target.under.test: NK2 (Homo sapiens, UniProt P21452)
# Sequence (P21452 whole entry): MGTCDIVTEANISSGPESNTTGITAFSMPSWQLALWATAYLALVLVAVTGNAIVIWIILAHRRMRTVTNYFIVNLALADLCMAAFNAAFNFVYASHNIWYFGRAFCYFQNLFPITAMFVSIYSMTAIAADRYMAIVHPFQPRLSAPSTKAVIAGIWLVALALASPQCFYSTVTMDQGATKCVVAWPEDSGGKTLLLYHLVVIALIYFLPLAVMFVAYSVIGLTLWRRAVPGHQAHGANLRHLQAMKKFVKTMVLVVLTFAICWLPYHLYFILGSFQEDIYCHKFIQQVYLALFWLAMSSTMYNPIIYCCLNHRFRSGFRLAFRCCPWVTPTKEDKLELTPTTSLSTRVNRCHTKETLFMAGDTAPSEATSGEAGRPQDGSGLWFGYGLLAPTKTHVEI
# method: Signal transduction (ST), intracellular Ca++ (FLIPR), NK2
# Assay type: cell-based
# condition.summary: read-out: pIC50 NK2 (converted)
// boundary case: IC50 equal to 3000 nM maps to false; strictly smaller maps to true

CC(C)(C)C(=O)N1CC[C@H](N2CCN([C@H]3CCN(C(=O)c4cc(C(F)(F)F)cc(C(F)(F)F)c4)[C@H](Cc4ccc(Cl)c(Cl)c4)C3)CC2)C1; true
O=C(c1ccccc1Cl)N1CCC(N2CCN([C@H]3CCN(C(=O)c4cc(C(F)(F)F)cc(C(F)(F)F)c4)[C@H](Cc4ccccc4)C3)CC2)C1 (stereo partly drawn); false
O=C(C1CCCCC1)N1CC[C@H](N2CCN([C@H]3CCN(C(=O)c4cc(C(F)(F)F)cc(C(F)(F)F)c4)[C@H](Cc4ccc(Cl)c(Cl)c4)C3)CC2)C1; true
CN(C(=O)C1CC1)C(C)(C)C(=O)N1CCC(N2CCN(C3CCN(C(=O)c4cc(C(F)(F)F)cc(C(F)(F)F)c4)C(Cc4ccccc4)C3)CC2)C1 (stereo not drawn); true
O=C(c1c(Cl)cccc1Cl)N1CCC(N2CCN([C@H]3CCN(C(=O)c4cc(C(F)(F)F)cc(C(F)(F)F)c4)[C@H](Cc4ccccc4)C3)CC2)C1 (stereo partly drawn); true

Input Cc1ccc(C(=O)N2CCC(N3CCN([C@H]4CCN(C(=O)c5cc(C(F)(F)F)cc(C(F)(F)F)c5)[C@H](Cc5ccccc5)C4)CC3)C2)s1 (stereo partly drawn) ; condition: IC50 strictly below 3000 nM. Does it hold?
false

Please determine if CC(C)(C)C(=O)N1CCC(N2CCN([C@@H]3CCN(C(=O)c4cc(C(F)(F)F)cc(C(F)(F)F)c4)[C@H](Cc4ccc(F)c(F)c4)C3)CC2)C1 (single isomer, unassigned) is below 3000 nM in terms of IC50.
true

Here's an entry: O=C(c1ccccc1Cl)N1CCC(N2CCN([C@H]3CCN(C(=O)c4cc(C(F)(F)F)cc(C(F)(F)F)c4)[C@H](Cc4ccc(Cl)c(Cl)c4)C3)CC2)C1 (relative stereo) . Is its IC50 below 3000 nM?
true

Strictly below 3000 nM: is that where IC50 of `O=C(c1ccsc1)N1CC[C@H](N2CCN([C@@H]3CCN(C(=O)c4cc(C(F)(F)F)cc(C(F)(F)F)c4)[C@@H](Cc4ccc(Cl)c(Cl)c4)C3)CC2)C1` sits?
false

Would you kindly verify if IC50 of O=C(c1ccoc1)N1CCC(N2CCN(C3CCN(C(=O)c4cc(C(F)(F)F)cc(C(F)(F)F)c4)C(Cc4ccc(F)c(F)c4)C3)CC2)C1 (stereo not drawn) [Compound 226] is strictly less than 3000 nM?
true

Where these numbers come from: patent US7795261B2
